Where these numbers come from: ChEMBL document CHEMBL5154787

assay-details: Metabolic stability in dog microsomes assessed as half life incubated at 0.5 uM for 10 mins in presence of NADPH by LC-MS/MS analysis
Assay type: ADME, Canis lupus familiaris, Liver, Microsome
measure-name: half-life at 0.5 µM

Observe how each entry below is paired with its result.
Supply half-life at 0.5 µM value. Item: COC(=O)Nc1cc(-c2cnc(OC[C@@](C)(N)CC(C)C)c(C)c2)ccn1
> 2 h

Assign half-life at 0.5 µM to the following record: COC(=O)Nc1cc(-c2ccc(OC[C@@](C)(N)CC(C)C)c(C)n2)ccn1
1.68 h

Next item in the queue.
Note half-life at 0.5 µM for the molecule shown: CC(C)C[C@](C)(N)COc1cnc(-c2ccnc(C(F)F)c2)cc1C(F)F
0.433 h

* * *

study-system: AP2-associated protein kinase 1 (Mus musculus, UniProt Q3UHJ0)
Sequence (Q3UHJ0 whole entry): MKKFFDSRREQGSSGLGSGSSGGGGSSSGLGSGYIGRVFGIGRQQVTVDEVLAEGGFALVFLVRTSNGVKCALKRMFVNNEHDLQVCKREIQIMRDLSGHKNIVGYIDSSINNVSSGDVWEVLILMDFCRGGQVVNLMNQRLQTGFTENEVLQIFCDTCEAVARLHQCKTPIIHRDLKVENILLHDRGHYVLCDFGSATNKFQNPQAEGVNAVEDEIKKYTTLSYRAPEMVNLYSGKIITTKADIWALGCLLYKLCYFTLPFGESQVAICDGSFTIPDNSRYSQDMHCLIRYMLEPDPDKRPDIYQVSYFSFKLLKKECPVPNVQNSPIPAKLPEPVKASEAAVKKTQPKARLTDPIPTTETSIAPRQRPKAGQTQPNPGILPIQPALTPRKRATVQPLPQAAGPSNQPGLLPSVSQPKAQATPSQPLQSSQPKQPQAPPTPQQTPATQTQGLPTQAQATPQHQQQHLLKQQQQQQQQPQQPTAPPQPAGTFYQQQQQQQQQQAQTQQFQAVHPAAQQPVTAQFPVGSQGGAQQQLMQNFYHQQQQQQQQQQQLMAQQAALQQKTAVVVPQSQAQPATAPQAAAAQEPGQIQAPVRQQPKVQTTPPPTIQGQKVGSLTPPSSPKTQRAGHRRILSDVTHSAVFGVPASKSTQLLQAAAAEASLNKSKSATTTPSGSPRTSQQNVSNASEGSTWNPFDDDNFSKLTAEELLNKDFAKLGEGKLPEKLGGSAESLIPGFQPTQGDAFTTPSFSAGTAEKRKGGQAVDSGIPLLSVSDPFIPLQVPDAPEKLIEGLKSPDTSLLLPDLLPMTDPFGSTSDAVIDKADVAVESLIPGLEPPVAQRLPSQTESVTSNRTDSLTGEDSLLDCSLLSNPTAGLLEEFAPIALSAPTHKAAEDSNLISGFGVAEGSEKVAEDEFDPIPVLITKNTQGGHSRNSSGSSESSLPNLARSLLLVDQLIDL
Label yes (1) when Ki is strictly below 0.08 nM; otherwise label no (0).

Dear reviewer, please state whether CC(=O)Nc1cc(-c2cc(F)c(OC[C@@H](N)CC(C)C)c(F)c2)ccn1 has Ki strictly beneath 0.08 nM.
no (0)

Lab note: confirm whether the reported Ki for this compound is below 0.08 nM, equality not counting. compound: CC(=O)Nc1cc(-c2ccc(OC[C@@](C)(N)CC(C)C)c(OC(F)(F)F)c2)ccn1
yes (1)

Please check: Ki for COC(=O)Nc1cc(-c2ccc(OC[C@@](C)(N)CC(C)C)c(C3CC3)c2)ccn1 , strictly under 0.08 nM or not?
yes (1)

Dear reviewer, please state whether COC(=O)Nc1cc(-c2ccc(OC[C@@](C)(N)CC(C)C)c(C(F)(F)F)c2)ccn1 has Ki strictly beneath 0.08 nM.
yes (1)

Ki under 0.08 nM? Item: COC(=O)Nc1cc(-c2cc(C(F)F)c(OC[C@@](C)(N)CC(C)C)cn2)ccn1
yes (1)

Is the reported Ki for CC(=O)Nc1cc(-c2ccc(OC[C@@H](N)CC(C)C)c(C(F)(F)F)c2)ccn1 strictly below 0.08 nM?
yes (1)

Bench note: check whether COC(=O)Nc1cc(-c2ccc(OC[C@@](C)(N)CC(C)C)c(C)c2C)ccn1 (racemic) shows Ki below 0.08 nM
no (0)

* * *

study-system: MAP kinase-interacting serine/threonine-protein kinase 2 (Homo sapiens, UniProt Q9HBH9)
Sequence (Q9HBH9 whole entry): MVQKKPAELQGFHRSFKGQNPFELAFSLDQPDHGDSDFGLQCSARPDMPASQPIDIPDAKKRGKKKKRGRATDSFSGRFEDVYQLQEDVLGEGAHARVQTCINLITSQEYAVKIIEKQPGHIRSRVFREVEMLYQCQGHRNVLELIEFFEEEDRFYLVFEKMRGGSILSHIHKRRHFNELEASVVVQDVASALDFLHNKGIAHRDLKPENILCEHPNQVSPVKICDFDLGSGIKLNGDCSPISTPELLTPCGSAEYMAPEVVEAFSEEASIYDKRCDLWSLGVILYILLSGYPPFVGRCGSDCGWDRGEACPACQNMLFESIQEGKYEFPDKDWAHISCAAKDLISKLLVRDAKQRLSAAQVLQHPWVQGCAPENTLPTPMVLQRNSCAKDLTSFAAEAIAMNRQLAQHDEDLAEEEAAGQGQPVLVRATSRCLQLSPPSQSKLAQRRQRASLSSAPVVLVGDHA
assay-details: Inhibition of MNK2 (unknown origin)
Recorded IC50 by entry
I only need the number, in nM, no unit after it.

Quickly give me recorded IC50 for COC(=O)Nc1cc(-c2ccc(OC[C@@](C)(N)CC(C)C)c(Cl)n2)ccn1
1200

Next compound, IC50 to be filled in.
Tell us which IC50 value is on record for COC(=O)Nc1cc(-c2cnc(OC[C@@](C)(N)CC(C)C)c(C#N)c2)ccn1
900

* * *

Each item that follows carries a reported Papp B→A.
assay-details: Permeability across basolateral to apical side in human Caco-2 cells
Assay type: ADME, cell-based
condition-set: read-out: permeability
Report the value in ×10⁻⁶ cm/s with no unit label.

Identify Papp B→A associated with the molecule CC(C)C[C@](C)(N)COc1cnc(-c2ccnc(C(F)F)c2)cc1C(F)F
15.3

Note Papp B→A for the molecule shown: COC(=O)Nc1cc(-c2ccc(OC[C@@](C)(N)CC(C)C)c(C)n2)ccn1
38.4

API: the following record is the query input.
Give the measured Papp B→A for COC(=O)Nc1cc(-c2cnc(OC[C@@](C)(N)CC(C)C)c(C)c2)ccn1
17.3
